Where do these numbers come from? They come from patent US20090131513A1.

Tested on: NO synthesis in mouse macrophage cell line RAW 264.7
assayExplanation: Inhibition of nitric oxide synthesis (Griess reaction)
Format: cell-based
appliedConditions: 10 μM
measuredMetric: NO synthesis, direction of effect in words

Example cases with answers are listed next.
[
  {
    "molecule": "Cc1c(O)ccc2c1OCC(c1ccc(O)cc1)C2O (single isomer, unassigned) [Compound 3b]",
    "testResult": "inhibited NO synthesis"
  },
  {
    "molecule": "O=C1c2ccc(O)c(Br)c2OCC1c1ccc(O)cc1 (centres unmarked)",
    "testResult": "inhibited NO synthesis"
  },
  {
    "molecule": "O=C1c2cc(Cl)c(O)cc2OCC1c1ccc(O)cc1 (centres unmarked)",
    "testResult": "induced it"
  },
  {
    "molecule": "Cc1c(O)ccc2c1OCC(c1ccc(O)cc1)C2O (single isomer, unassigned) [Compound 3a]",
    "testResult": "inhibited NO synthesis"
  }
]

Form field NO synthesis, direction of effect in words, entry Oc1ccc(C2COc3c(ccc(O)c3O)C2O)cc1 (centres unmarked) : induced it
